Test system: NCI-H460 lung
MEASUREMENT NOTES: NCI tumour cell line growth inhibition, 48 h
Below: a set of entries, each annotated with reported TGI.

compound="CC(C)C(Sc1nc(-c2ccccc2)c(-c2ccccc2)[nH]1)C(=O)NN (stereo not given)" tgt="NCI-H460 lung" property=TGI test_result="> 100 µM"
compound=O=C(O)CNS(=O)(=O)c1ccc(NC(=O)CI)cc1 tgt="NCI-H460 lung" property=TGI test_result="64 µM"
compound="O=C1C2C=CC(C2)C(c2ccc(O)cc2)N1O (stereo not given)" tgt="NCI-H460 lung" property=TGI test_result="> 100 µM"

// query TGI value for entry C/C=C1/CCC2c3[nH]c4ccccc4c3CCN2C1 (stereo not given)
> 100 µM

# iterate: COc1ccc(S(=O)(=O)N/N=C/c2cc(I)cc([N+](=O)[O-])c2O)cc1OC
> 100 µM

Param item: Nc1c([N+](=O)[O-])cc2c3c(cccc13)CC2
> 100 µM

What do you have for O=C(Nc1ccccc1)n1[nH]c(=O)n(-c2ccccc2)c1=O ?
> 100 µM

Again, but for CC(O)c1ccc[n+](Cc2ccccc2)c1 (stereo not given)
> 400 µM

Consider next the compound Cc1ccc2c(c1)CC1(Cc3c(C)cccc3C1=O)C2=O (stereo not given) in the same way.
> 100 µM

Now give it for C[n+]1ccc(Nc2ccc(NC(=O)c3ccc(Nc4cc[n+](C)c5ccc([N+](=O)[O-])cc45)cc3[N+](=O)[O-])cc2)cc1 too.
> 100 µM

Param item: COc1cccc(OCCCN)c1-c1cc(Nc2cnc(C#N)cn2)n[nH]1
12.6 µM

----------
System: SK-MEL-5 melanoma
MEASUREMENT NOTES: NCI tumour cell line growth inhibition, 48 h
PROPERTY: GI50

Name the recorded GI50 for CCC[CH2][Sn]([CH2]CCC)([CH2]CCC)[O]C(=O)c1ccc(Cl)cc1Cl .
143 nM

Same read-out for COc1cc(NC(=O)CSc2nc3ccc(C)cc3c(=O)n2Cc2ccccc2)cc(OC)c1OC ?
3670 nM

Again, but for COc1ccccc1N1CCN(CCc2c[nH]c3cc4c(cc23)OCO4)CC1
13200 nM

Same read-out for O=P(CCCCP(=O)(c1ccccc1)c1ccccc1)(c1ccccc1)c1ccccc1.[Cl][Sn]([Cl])([c]1ccccc1)[c]1ccccc1 ?
1900 nM

Also COc1cc(/C=N/NC(=O)c2cnn3c2NC(c2ccccc2)C3)ccc1Oc1ccccc1 (centres undefined) , if possible.
734 nM

And then COC(=O)CCC1CCC(c2cc(F)ccc2F)(S(=O)(=O)c2ccc(Cl)cc2)CC1 (centres undefined) , what is it?
28400 nM

Subsequent entry: CCN1Cc2c(ccc(F)c2C#N)O[C@@H](C)CNC(=O)c2c(N)nn3ccc1nc23
3460 nM

Now this one: Nc1nc(N)c2c(n1)NC(c1ccc(F)cc1)C1CCc3ccccc3C1=N2 (centres undefined)
609 nM

Follow-up item: OC(CNCC1CCCO1)Cn1c2ccc(Cl)cc2c2cc(Cl)ccc21 (centres undefined)
1770 nM

----------
// reported TGI for each item listed
Test system: SK-OV-3 ovarian
MEASUREMENT NOTES: NCI tumour cell line growth inhibition, 48 h
All answers are understood in µM, so give the number only.

Consider the following illustrative entries.
compound=CCC[CH2][Sn]([CH2]CCC)([CH2]CCC)[O]C(=O)c1ccc(Cl)cc1Cl readout_units=µM test_result=0.279
compound="COC(=O)c1cc2cc3c(c(O)c2c(=O)o1)O[C@@]1(Oc2c(O)c4c(c(O)c2[C@H]1OC1CC(OC)C(O)C(C)O1)C(=O)C=C(OC)C4=O)[C@H](O)C3 (stereo partly specified)" readout_units=µM test_result=17
compound=Cc1cc(Cc2cc(C)cc(C(C)(C)C)c2O)c(O)c(Cc2cc(C)cc(C(C)(C)C)c2O)c1 readout_units=µM test_result=10.9

Looking for the measured TGI of COc1ccc(S(=O)(=O)Nc2cc(/C=C\c3cc(OC)c(OC)c(OC)c3)ccc2OC)cc1 , can you help?
38.3

How about this compound: Cc1c(F)c(N)c2c(=O)cc(-c3ccc(N)c(F)c3)oc2c1F
38.1

And COc1cc(/C=N/NC(=O)c2cnn3c2NC(c2ccccc2)C3)ccc1Oc1ccccc1 (stereo unspecified) ?
10.6
